Listed here: molecules with reported IC50 for CCR5 chemokine receptor (Homo sapiens, UniProt P51681).

// solved cases for IC50 follow
molecule	IC50
CN1N=C2CCN(CC[C@](C)(CN(C)S(=O)(=O)c3ccccc3)c3ccccc3)CC2(Cc2ccccc2)C1=O (stereo partly drawn)	< 1000 nM
CN(C[C@@](C)(CCN1CCC2(CC1)CCN(C(=O)OC(C)(C)C)C2)c1ccccc1)S(=O)(=O)c1ccccc1	< 1000 nM
CN(C[C@@](C)(CCN1CC[C@H]2CN(C(=O)OCc3ccccc3)C[C@H]2C1)c1ccccc1)S(=O)(=O)c1ccccc1	< 100 nM
C[C@H](NC(=O)N1CC2CN(CC[C@](C)(CN(C)S(=O)(=O)c3ccccc3)c3ccccc3)CC[C@H]2C1)c1cccc2ccccc12 (stereo partly drawn)	< 1000 nM
CN(CC(C)(CCN1CCC2C(CCN2C(=O)OC(C)(C)C)C1)c1ccccc1)S(=O)(=O)c1ccc(C(=O)OCc2ccccc2)cc1 (stereo not drawn)	< 1000 nM

Q: Please give the measured IC50 for this molecule: CN(C[C@@](C)(CCN1CC[C@H]2CN(C(=O)OC(C)(C)C)C[C@H]2C1)c1ccccc1)S(=O)(=O)c1ccccc1
Result: < 100 nM

* * *

Listed here: compounds with reported pIC50 for CCR5 chemokine receptor (Homo sapiens).
pIC50: −log10 of the molar value.

compound	pIC50
CN(C[C@@](C)(CCN1CC[C@@H]2[C@@H](CCN2C(=O)OC(C)(C)C)C1)c1ccccc1)S(=O)(=O)c1ccccc1 [Example 44]	> 8.00
CN(CC(C)(CCN1CCC2C(CCN2C(=O)OC(C)(C)C)C1)c1ccccc1)S(=O)(=O)c1ccc(CNC(=O)OCc2ccccc2)cc1 (stereo not drawn) [Example 37]	> 6.00

Q: Please give the measured pIC50 for this compound: CO[C@@](CCN1CCC2C(CCN2C(=O)OC(C)(C)C)C1)(CN(C)S(=O)(=O)c1ccccc1)c1ccccc1 (stereo partly drawn) [Example 30]
Result: > 6.00
